Experiment: Induction of anti-CD3 antibodies-stimulated human T cell activation at 1 uM assessed fold increase in IL-2 secretion measured by ELISA assay; also: reference of the scale not given here
Assay type: functional, T cell line
measured_property: fold change (FC)

INSERT INTO measurements (molecule, value_measured) VALUES
  ('C[C@H](Sc1nncn1C)c1cccc(NC(=O)c2cc(C(F)(F)F)cc(C(F)(F)F)n2)c1', '<=0.05'),
  ('CC1CN(c2cc3c(c(C(F)(F)F)c2)CN(c2cccc(C4(Cc5nncn5C)COC4)c2)C3=O)C1C (stereo not drawn)', 0.051),
  ('C[C@H](c1cc2c(c(C(F)(F)F)c1)CN(c1cccc(C3(Cc4nncn4C)COC3)c1)C2=O)N1CCC2(CC1)CC2', '>=0.201'),
  ('Cc1cc(C(=O)Nc2cccc(C3([C@H](F)c4nncn4C)COC3)c2)nc(C2CC2)n1', 0.151),
  ('CC(O)c1cc2c(c(C(F)(F)F)c1)CN(c1cccc(C3(Cc4nncn4C)COC3)c1)C2=O (stereo not drawn)', 0.151),
  ('C[C@H](Cc1nncn1C)c1cccc(NC(=O)c2cc(C(=O)N3CC(O)C(F)(F)C3)ccn2)c1 (stereo partly drawn)', '>=0.201'),
  ('CC(c1cc(C(=O)Nc2cccc(C3(Cc4nncn4C)COC3)c2)nc(C2CC2)n1)N1CCCC1 (stereo not drawn)', '>=0.201'),
  ('CC(Sc1nncn1C)c1cc(F)cc(N2Cc3c(cccc3C(F)(F)F)C2=O)c1 (stereo not drawn)', '<=0.05');
